Cited source for all entries: patent US11518742B2

- protocolText: Toxicokinetics, 14-day intranasal study in dogs (Study 62959)
- Type: in vivo
- setupConditions: male, beagle, dog, plasma, inhaled or intranasal, 0.4 mg/kg/day, Day 14, Male, read-out: AUCINF_obs
measuredProperty: AUC(0-inf) (ng·h/mL)
State the answer as a number, implicitly in ng·h/mL.

Just so you know, measured AUC(0-inf) for `COc1ccc2[nH]cc(CCN(C)C)c2c1` came out at 77.7

---

- protocolText: Toxicokinetics, 14-day intranasal study in dogs (Study 62959)
- Assay type: in vivo
- setupConditions: male, beagle, dog, plasma, inhaled or intranasal, 0.4 mg/kg/day, Day 1, Male, read-out: t1/2 (converted)
measuredProperty: half-life (min)
Hi! Could you send only the number? It should be in min, unit omitted.

Lab book: half-life of `COc1ccc2[nH]cc(CCN(C)C)c2c1` noted as 34.3

---

- protocolText: Toxicokinetics, 14-day intranasal study in dogs (Study 62959)
- Type: in vivo
- setupConditions: female, beagle, dog, plasma, inhaled or intranasal, 0.4 mg/kg/day, Day 1, Female, read-out: t1/2 (converted)
measuredProperty: half-life (min)
Could you give me the number in min? Just the number is fine.

`COc1ccc2[nH]cc(CCN(C)C)c2c1` yielded half-life of 18.7

---

- protocolText: Toxicokinetics, 14-day intranasal study in rats (Study 700041)
- Assay type: in vivo
- setupConditions: male, Sprague Dawley, rat, plasma, inhaled or intranasal, 5 mg/kg/day, Day 14, Male
measuredProperty: Cmax (ng/mL)
Express the result in ng/mL but write the number alone.

The reported value for `COc1ccc2[nH]cc(CCN(C)C)c2c1` in terms of Cmax is 627

---

- protocolText: Toxicokinetics, 14-day intranasal study in rats (Study 700041)
- Type: in vivo
- setupConditions: both sexes, Sprague Dawley, rat, plasma, inhaled or intranasal, 75 mg/kg, rats, 14-day intranasal study, 5, 20, 75 mg/kg
measuredProperty: Tmax

Per the record, `COc1ccc2[nH]cc(CCN(C)C)c2c1` has Tmax of 2 to 5 min

---

- protocolText: Toxicokinetics, 14-day intranasal study in dogs (Study 62959)
- Format: in vivo
- setupConditions: male, Beagle, dog, plasma, inhaled or intranasal, 0.8 mg/kg/day, Day 14, Male
- Description: Assessments of mortality, clinical signs, olfactory reflex, body weights, food consumption, ophthalmology, and electrocardiograms were performed. In addition, clinical pathology assessments (hematology, coagulation, clinical chemistry and urinalysis) were evaluated once pretreatment and at termination. […]
measuredProperty: Tmax (min)
// note: answer is a bare numeric in min

For `COc1ccc2[nH]cc(CCN(C)C)c2c1` the molecule record lists Tmax as 6.66

---

- protocolText: Toxicokinetics, 14-day intranasal study in rats (Study 700041)
- Assay type: in vivo
- setupConditions: female, Sprague Dawley, rat, plasma, inhaled or intranasal, 20 mg/kg/day, Day 1, Female, read-out: AUC0-Tlast [SE]
measuredProperty: AUC(0-t) (ng·h/mL)
Enter your answer as a number in ng·h/mL; do not include the unit.

Looking up COc1ccc2[nH]cc(CCN(C)C)c2c1 [5MeODMT, 5-methoxy-N,N-dimethyltryptamine] , I see its AUC(0-t) listed as 198

---

- protocolText: Toxicokinetics, 14-day intranasal study in rats (Study 700041)
- Assay type: in vivo
- setupConditions: male, Sprague Dawley, rat, plasma, inhaled or intranasal, 20 mg/kg/day, Day 14, Male, read-out: AUC0-Tlast [SE]
measuredProperty: AUC(0-t) (ng·h/mL)
Give just the numeric value; ng·h/mL need not be written.

The compound listed as `COc1ccc2[nH]cc(CCN(C)C)c2c1` has a reported AUC(0-t) of 133
